- System: F1 hybrid maize plants
- TEST_PROTOCOL: efficacy field trial for 2,4-D tolerance
- Format: in vivo
- RUN_CONDITIONS: scale 0 to 100; 2 lb ae/acre at VE-V2, V4, V8; with CTP unless label says no CTP
Here, each record is paired with measured average injury rating, V8 Growth Stage, 2x 2,4-D data.
MEASURE_NAME: average injury rating, V8 Growth Stage, 2x 2,4-D

MOLECULE	RESULT
MON-HT6: engineered oxygenase protein, amino acid sequence SEQ ID NO:31 (protein) MHAALSPLSQKYRFIDVQPLTGVLGAEITGVTLREPLDDNTWNEILDAFHTYQVIYFPGQAITNEQHIAFSRRFGPVDPVPLLKSIEGYPEVQMIRREANESGRVIGDDWHTDSTFLDAPPAAVVMYAREVPPYGGDTGFLSMYSAWDTLSDTMKATIEGLNVVHSATRVFGSLYQAQNRRFSNTSVKVMDVDAGDRETVHPLVVSHPVTGRRALYCNQVYCQRIEGMTDAESKPLLQFLYEHATRFDFTCRVRWKKDQVLVWDNLCTMHRAVPDYAGKFRYLTRTTVAGDKPSR	6.3
MON-HT3: engineered oxygenase protein, amino acid sequence SEQ ID NO:22 (protein) MHAALSPLSQRFERIAVQPLTGVLGAEITGVDLREPLDDSTWNEILDAFHTYQVIYFPGQAITNEQHIAFSRRFGPVDPVPLLKSIEGYPEVQMIRREANESGRVIGDDWHTDSTFLDAPPAAVVMYAKEVPPYGGDTLFASMYTAWETLSPTMQATIEGLNVVHSATRVFGSLYQAQNRRFSNTSVKVMDVDAGDRETVHPLVVTHPETGRKGLYVNQVYCQRIEGMSEKESEPLLSFLFAHATKPEFTCRVRWQEGQVLVWDNLCTQHFAVPDYAGKFRYLTRTTVGGVRPAR	5.5

The measured values listed here are drawn from patent US12723255B2.
